compounds and their reported IC50
Sequence of the target: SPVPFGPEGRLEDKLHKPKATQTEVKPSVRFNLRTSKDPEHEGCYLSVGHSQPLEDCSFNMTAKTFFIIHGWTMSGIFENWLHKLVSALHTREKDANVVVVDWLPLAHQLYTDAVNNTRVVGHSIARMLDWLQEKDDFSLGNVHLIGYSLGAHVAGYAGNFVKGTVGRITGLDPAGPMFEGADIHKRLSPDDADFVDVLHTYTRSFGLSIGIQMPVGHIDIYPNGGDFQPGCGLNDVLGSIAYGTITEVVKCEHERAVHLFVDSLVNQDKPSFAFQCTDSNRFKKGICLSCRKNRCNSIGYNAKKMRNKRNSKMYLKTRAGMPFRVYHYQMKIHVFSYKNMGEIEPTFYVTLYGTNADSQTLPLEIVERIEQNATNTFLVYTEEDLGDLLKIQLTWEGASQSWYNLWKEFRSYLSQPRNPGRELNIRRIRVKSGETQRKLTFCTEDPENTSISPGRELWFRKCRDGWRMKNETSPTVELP
measured metric: IC50 (nM)

> print(dat)
                                   compound  observed
1  Cc1ccccc1NC(=O)Nc1cc(S(=O)(=O)N2CCC(C(F)(F)F)CC2)oc1C [SBC-140,466]        62
2  Cc1oc(S(=O)(=O)N2CCC(C(F)(F)F)CC2)cc1NC(=O)NC(c1ccccc1)C(F)(F)F (centres unmarked) [SBC-140,472]        79

The values you see were collected from patent US10259804B2.
